Kd values by entry
# Assay system: Spa47Δ1-83 (Shigella flexneri, UniProt P0A1C1)
# Construct: The cDNA encoding Spa47Δ1-83 (84–430 aa) was amplified; 6xHis (pET28a, thrombin site) (N, cleaved yes); made in house; host or cells: E. coli Rosetta (DE3)
# Test summary: Isothermal titration calorimetry (ITC) of nucleotide binding to monomeric Spa47Δ1-83
# Stated conditions: ITC, 25°C, 20 mM Tris-HCl pH 8.0, 100 mM NaCl, 5 mM MgCl2 (MgCl2 omitted for ATP); single binding site model; Kd calculated as 1/Ka; read-out: Kd (apparent dissociation constant)
Measured quantity: Kd (µM)

>>> print(df.to_string())
                            smiles_notation  endpoint_value
0  Nc1ncnc2c1ncn2[C@@H]1O[C@H](COP(=O)(O)OP(=O)(O)O)[C@@H](O)[C@H]1O             150
1  Nc1ncnc2c1ncn2[C@@H]1O[C@H](COP(=O)(O)OP(=O)(O)NP(=O)(O)O)[C@@H](O)[C@H]1O             322
2  Nc1ncnc2c1ncn2[C@@H]1O[C@H](COP(=O)(O)OP(=O)(O)OP(=O)(O)O)[C@@H](O)[C@H]1O            23.1

----------
# Assay system: Spa47Δ1-83 (Shigella flexneri)
# Construct: The cDNA encoding Spa47Δ1-83 (84–430 aa) was amplified; 6xHis (pET28a, thrombin site) (N, cleaved yes); made in house; host or cells: E. coli Rosetta (DE3)
# Test summary: Isothermal titration calorimetry (ITC) of nucleotide binding to monomeric Spa47Δ1-83
# Stated conditions: ITC, 25°C; ATP without Mg2+, other ligands with Mg2+
Measured quantity: ΔS (entropy variation) (cal/mole/deg)

                            smiles_notation                    assay_system  endpoint_value
0  Nc1ncnc2c1ncn2[C@@H]1O[C@H](CO[P@](=O)(O)O[P@](=O)(O)O[P@@](=O)(O)S)[C@@H](O)[C@H]1O  Spa47Δ1-83 (Shigella flexneri)           -6.00
1  Nc1ncnc2c1ncn2[C@@H]1O[C@H](COP(=O)(O)OP(=O)(O)O)[C@@H](O)[C@H]1O  Spa47Δ1-83 (Shigella flexneri)          -40.30
2  Nc1ncnc2c1ncn2[C@@H]1O[C@H](COP(=O)(O)OP(=O)(O)NP(=O)(O)O)[C@@H](O)[C@H]1O  Spa47Δ1-83 (Shigella flexneri)           -8.20
3  Nc1ncnc2c1ncn2[C@@H]1O[C@H](COP(=O)(O)OP(=O)(O)OP(=O)(O)O)[C@@H](O)[C@H]1O  Spa47Δ1-83 (Shigella flexneri)            4.50

Hello, the source for this data is paper PMC6036117, in case you need it.
